All values here come from patent US20050282793A1.

system: Human Carboanhydrase I (Homo sapiens, UniProt P00915)
Sequence (P00915 whole entry): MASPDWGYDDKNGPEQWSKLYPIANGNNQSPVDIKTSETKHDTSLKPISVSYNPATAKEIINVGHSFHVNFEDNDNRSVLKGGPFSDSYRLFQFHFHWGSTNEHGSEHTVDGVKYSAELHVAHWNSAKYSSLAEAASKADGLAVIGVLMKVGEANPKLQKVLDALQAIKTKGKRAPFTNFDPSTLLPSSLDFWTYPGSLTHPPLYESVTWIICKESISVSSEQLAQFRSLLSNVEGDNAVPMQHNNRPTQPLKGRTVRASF
protocol: Carboanhydrase I inhibition (CO2 hydration)
Type: biochemical
recorded_conditions: human carboanhydrase I; read-out: CAI IC50
pIC50: −log10 of the molar value.
measured_property: pIC50

So for C[C@@H]1CC2=CC(=O)CC[C@@H]2[C@H]2CC[C@]3(C)[C@@H](OC(=O)c4ccc(S(N)(=O)=O)cc4)CC[C@H]3[C@@H]21 [Compound 11] , the logged pIC50 turned out to be 6.40 to 6.70
